Data origin, for the record: the supplement of paper PMC11417369

Hi there, I'd appreciate the recorded gcPBM binding intensity (ln) for every entry that follows.
Test system: PfAP2-LT AP2 domain (GST-tagged)
assay comment: gcPBM binding intensity (ln(normalized median fluorescence intensity)); higher = stronger DNA binding
Over roughly 25,000 sequences, “ln(normalized median fluorescence intensity)” has its median near 8.9; the highest 2% begin near 10. Only a selection was taken, and the highest values are over-represented in it overall.
Give bare numbers.

AAAAAAAAAAAACACACACACACACCCATACATACA [CACACA_site707]
10.4
CATACACCCATACATACACACATACATACACCCATA [CACACA_site5124]
9.56
AAAAAAAAAAAACATACACACAAATAAATACATACA [CACACA_site6073]
9.23
TTTATATTTAAATGCATGCACTTTCTATTTTTTTTT [GTGCAC_site9959]
9.13
AAAAAAAAAAAACACACACACACATACCCATACATA [CACACA_site5575]
9.98

List the reported gcPBM binding intensity (ln) of each sequence below.
1. TTGTATATATTAAATTGTACTTATTTTTTGTATATA [XGTACX_site3251]
2. TAAACACCCATACATACACACATACATACACCCATA [CACACA_site5125]

1: 8.64; 2: 9.63

List the reported gcPBM binding intensity (ln) of each sequence below.
1. ATATTCTGATTTTAGATGCACTTCGTTAACAAAATA [GTGCAC_site9958]
2. TTATATTATATATATGTGCACATTTTTAAACTTGGA
3. CCTTTCACATATAATACATGCATTATTATATATGAA [TGCATGCA_site287]
4. GATGGATTTATTTAAAGTACATATTTAAAAAACTGT [XGTACX_site7567]
5. AAAGAAAGAAAGAATACACACACACCGATATATATA [CACACA_site9246]
6. CTATAAAAATATAATTGTACAAATTTTTATATCTTA [XGTACX_site7722]
7. ACTTGTAAGAAACACACACACACACCGATATATATA [CACACA_site4594]

8.49
8.77
8.7
8.51
9.77
8.35
10.1

List the reported gcPBM binding intensity (ln) of each sequence below.
1. TACATATGAAAATACACACATACATACATATATATA [CACACA_site1673]
2. CGTATTTATATAATTACACACCATATTATAATTATT [CACACA_site3760]
3. ACTTGTAAGAAACACACACACACACCCATATATATA [CACACA_site796]
4. TTACACTAAATATGTTCACACATTTTTTCCATCATA [CACACA_site4647]
5. AAAAAATTATTAATTTGTACATAAATAACCAAAAAA [XGTACX_site2488]
6. AAACTTGTAAGAAACACACACACACGCATATAAATA [CACACA_site6518]

[9.21, 8.84, 10.2, 8.79, 8.49, 9.98]
